System: bacterial protein synthesis (aminoacylation/translation system)
PROTOCOL TEXT: aminoacylation/translation (A/T) assay
Format: biochemical
TEST PARAMETERS: A/T assay, Table 1; read-out: IC50

[
  {
    "ENTRY SMILES": "O=c1[nH]c(-c2cccs2)nc2c1CN(Cc1ccc(Cl)cc1)CC2",
    "LIMIT SIGN": "=",
    "IC50 / µM": 101
  },
  {
    "ENTRY SMILES": "Oc1nc(-c2cccnc2)nc2c1CN(Cc1cccc(F)c1)CC2",
    "LIMIT SIGN": ">",
    "IC50 / µM": 300
  },
  {
    "ENTRY SMILES": "O=c1[nH]c(-c2ccccn2)nc2c1CN(Cc1cccc(Cl)c1Cl)CC2",
    "LIMIT SIGN": "=",
    "IC50 / µM": 11.6
  },
  {
    "ENTRY SMILES": "CN(CCO)c1ccc(CN2CCc3nc(-c4ccccn4)[nH]c(=O)c3C2)cc1",
    "LIMIT SIGN": "=",
    "IC50 / µM": 3.2
  }
]

----------
System: S. aureus
PROTOCOL TEXT: Broth microdilution MIC testing
Format: cell-based, Staphylococcus aureus
TEST PARAMETERS: Staphylococcus aureus, read-out: MIC S. aureus
The following compounds are listed with their measured MIC values.
REPORTED ENDPOINT: MIC

[
  {
    "COMPOUND": "COc1ccccc1CN1CCc2nc(-c3ccccn3)nc(O)c2C1 [Compound 321527]",
    "REPORTED ENDPOINT": "MIC",
    "VALUE MEASURED": "> 128 mg/L"
  },
  {
    "COMPOUND": "O=c1[nH]c(-c2cccs2)nc2c1CN(Cc1ccc(Cl)cc1)CC2 [Compound 332057]",
    "REPORTED ENDPOINT": "MIC",
    "VALUE MEASURED": "> 128 mg/L"
  },
  {
    "COMPOUND": "Cc1nc(-c2nc3c(c(=O)[nH]2)CN(Cc2ccc(Cl)cc2)CC3)cs1 [Compound 323356]",
    "REPORTED ENDPOINT": "MIC",
    "VALUE MEASURED": "> 128 mg/L"
  },
  {
    "COMPOUND": "Oc1nc(-c2ccccn2)nc2c1CCN(Cc1ccc(Cl)cc1)C2 [Compound 323338]",
    "REPORTED ENDPOINT": "MIC",
    "VALUE MEASURED": "16 mg/L"
  },
  {
    "COMPOUND": "O=c1[nH]c(-c2cnccn2)nc2c1CN(Cc1ccc(Cl)cc1)CC2 [Compound 323354]",
    "REPORTED ENDPOINT": "MIC",
    "VALUE MEASURED": "> 128 mg/L"
  },
  {
    "COMPOUND": "CC1CN(Cc2ccc(Cl)cc2)Cc2c1nc(-c1ccccn1)[nH]c2=O (stereo not drawn) [Compound 332054]",
    "REPORTED ENDPOINT": "MIC",
    "VALUE MEASURED": "4 mg/L"
  }
]

----------
Test system: H. influenzae
PROTOCOL TEXT: Broth microdilution MIC testing
Type: cell-based, Haemophilus influenzae
TEST PARAMETERS: Haemophilus influenzae, read-out: MIC H. flu
Rule for this label: 1.0 means MIC is less than 4 µg/mL; 0.0 means MIC is at least 4 µg/mL.

[
  {
    "ENTRY SMILES": "Cn1c(-c2ccccn2)nc2c(c1=O)CN(Cc1ccc(Cl)cc1)CC2",
    "EXPERIMENTAL SYSTEM": "H. influenzae",
    "GROUP": 0.0
  },
  {
    "ENTRY SMILES": "Oc1cccc(CN2CCc3nc(-c4ccccn4)nc(O)c3C2)c1",
    "EXPERIMENTAL SYSTEM": "H. influenzae",
    "GROUP": 0.0
  },
  {
    "ENTRY SMILES": "O=c1[nH]c(-c2cnccn2)nc2c1CN(Cc1ccc(Cl)cc1)CC2",
    "EXPERIMENTAL SYSTEM": "H. influenzae",
    "GROUP": 0.0
  },
  {
    "ENTRY SMILES": "Oc1ccccc1CN1CCc2nc(-c3ccccn3)nc(O)c2C1",
    "EXPERIMENTAL SYSTEM": "H. influenzae",
    "GROUP": 1.0
  },
  {
    "ENTRY SMILES": "O=c1[nH]c(-c2ccccn2)nc2c1CN(CCc1ccc(Cl)cc1)CC2",
    "EXPERIMENTAL SYSTEM": "H. influenzae",
    "GROUP": 1.0
  },
  {
    "ENTRY SMILES": "O=c1[nH]c(-c2cccs2)nc2c1CN(Cc1ccc(Cl)cc1)CC2",
    "EXPERIMENTAL SYSTEM": "H. influenzae",
    "GROUP": 0.0
  },
  {
    "ENTRY SMILES": "Oc1nc(-c2ccccn2)nc2c1CCN(Cc1ccc(Cl)cc1)C2",
    "EXPERIMENTAL SYSTEM": "H. influenzae",
    "GROUP": 1.0
  },
  {
    "ENTRY SMILES": "Cc1cccc(-c2nc3c(c(=O)[nH]2)CN(Cc2ccc(Cl)cc2)CC3)n1",
    "EXPERIMENTAL SYSTEM": "H. influenzae",
    "GROUP": 0.0
  },
  {
    "ENTRY SMILES": "Oc1nc(-c2ccncc2)nc2c1CN(Cc1cccc(F)c1)CC2",
    "EXPERIMENTAL SYSTEM": "H. influenzae",
    "GROUP": 0.0
  },
  {
    "ENTRY SMILES": "COc1ccccc1CN1CCc2nc(-c3ccccn3)nc(O)c2C1",
    "EXPERIMENTAL SYSTEM": "H. influenzae",
    "GROUP": 0.0
  },
  {
    "ENTRY SMILES": "COc1ccc(CN2CCc3nc(-c4ccccn4)nc(O)c3C2)cc1",
    "EXPERIMENTAL SYSTEM": "H. influenzae",
    "GROUP": 0.0
  },
  {
    "ENTRY SMILES": "O=C(c1ccc(Cl)cc1)N1CCc2nc(-c3ccccn3)[nH]c(=O)c2C1",
    "EXPERIMENTAL SYSTEM": "H. influenzae",
    "GROUP": 0.0
  },
  {
    "ENTRY SMILES": "O=c1nc(-c2ccccn2)nc2ccn(Cc3ccc(Cl)cc3)cc1-2",
    "EXPERIMENTAL SYSTEM": "H. influenzae",
    "GROUP": 0.0
  }
]
